FYI, the data here is from patent US20090088439A1.

biological target: GABAB(1A,2) receptor heterodimer (Homo sapiens, UniProt O75899+Q9UBS5); construct: expressed in transfected cells; membrane preparation; experiment: GTPγS35 radioligand filtration-binding assay for determination of PAM potency; format: biochemical; details: membranes of CHO-K1 cells expressing GABABR1a/GABABR2; concentration required to reduce GABA's EC50 by 50%; PAM at 10, 1, 0.1 and 0.01 μM; read-out: Mean (EC50 derived) PAM EC50
Sequence (Q9UBS5 15-961 limits assumed): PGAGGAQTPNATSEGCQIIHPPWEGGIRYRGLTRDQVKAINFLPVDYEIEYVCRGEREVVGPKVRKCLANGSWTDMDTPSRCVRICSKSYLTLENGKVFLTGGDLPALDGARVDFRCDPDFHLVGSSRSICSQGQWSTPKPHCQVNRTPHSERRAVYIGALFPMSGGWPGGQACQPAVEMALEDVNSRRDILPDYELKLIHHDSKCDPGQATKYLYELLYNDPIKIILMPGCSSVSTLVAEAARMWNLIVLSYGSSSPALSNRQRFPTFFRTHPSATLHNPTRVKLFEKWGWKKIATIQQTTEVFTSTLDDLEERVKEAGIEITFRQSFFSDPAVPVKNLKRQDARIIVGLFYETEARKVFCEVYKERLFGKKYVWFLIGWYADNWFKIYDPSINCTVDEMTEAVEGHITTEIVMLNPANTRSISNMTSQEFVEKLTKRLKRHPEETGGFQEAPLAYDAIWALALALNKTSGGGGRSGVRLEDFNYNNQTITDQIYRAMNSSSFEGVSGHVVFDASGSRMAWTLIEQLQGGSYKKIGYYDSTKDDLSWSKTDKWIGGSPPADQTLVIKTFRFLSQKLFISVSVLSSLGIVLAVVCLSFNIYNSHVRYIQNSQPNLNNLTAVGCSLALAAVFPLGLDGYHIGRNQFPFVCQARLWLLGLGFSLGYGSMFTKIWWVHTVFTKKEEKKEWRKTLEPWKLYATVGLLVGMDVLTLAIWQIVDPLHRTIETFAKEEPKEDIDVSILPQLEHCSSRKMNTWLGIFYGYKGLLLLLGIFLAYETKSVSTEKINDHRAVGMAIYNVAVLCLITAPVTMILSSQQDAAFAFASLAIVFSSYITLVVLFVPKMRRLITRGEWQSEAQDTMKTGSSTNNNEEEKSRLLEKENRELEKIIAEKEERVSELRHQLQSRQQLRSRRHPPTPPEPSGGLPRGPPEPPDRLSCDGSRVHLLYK
Sequence (O75899 42-941): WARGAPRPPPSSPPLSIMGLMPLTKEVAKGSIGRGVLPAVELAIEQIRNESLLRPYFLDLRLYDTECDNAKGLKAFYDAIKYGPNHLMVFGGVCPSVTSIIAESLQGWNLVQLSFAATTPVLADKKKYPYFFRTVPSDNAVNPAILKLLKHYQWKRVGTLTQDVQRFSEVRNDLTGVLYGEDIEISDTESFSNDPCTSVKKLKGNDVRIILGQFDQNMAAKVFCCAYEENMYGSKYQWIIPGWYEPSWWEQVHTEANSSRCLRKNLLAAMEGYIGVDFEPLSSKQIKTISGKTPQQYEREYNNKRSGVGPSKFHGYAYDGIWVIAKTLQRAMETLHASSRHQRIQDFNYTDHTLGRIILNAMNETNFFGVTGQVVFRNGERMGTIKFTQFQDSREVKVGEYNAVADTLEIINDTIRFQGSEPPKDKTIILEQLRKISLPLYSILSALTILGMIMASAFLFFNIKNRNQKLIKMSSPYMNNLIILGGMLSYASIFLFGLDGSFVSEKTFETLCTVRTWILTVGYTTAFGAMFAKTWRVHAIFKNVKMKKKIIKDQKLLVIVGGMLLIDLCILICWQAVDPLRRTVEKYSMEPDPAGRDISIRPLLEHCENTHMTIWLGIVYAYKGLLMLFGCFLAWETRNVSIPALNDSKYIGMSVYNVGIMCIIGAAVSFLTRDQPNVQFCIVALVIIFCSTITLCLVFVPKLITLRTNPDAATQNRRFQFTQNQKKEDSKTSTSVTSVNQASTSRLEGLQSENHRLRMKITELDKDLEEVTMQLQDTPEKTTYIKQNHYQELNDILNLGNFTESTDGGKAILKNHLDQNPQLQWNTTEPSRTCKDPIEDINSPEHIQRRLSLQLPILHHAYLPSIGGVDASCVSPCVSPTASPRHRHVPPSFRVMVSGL
pEC50: −log10 of the molar value.
measured_metric: pEC50

The cases that follow already have their pEC50 on record.
molecule	assay_target	pEC50
O=c1c2nccnc2n(CCc2ccccc2)c(=O)n1Cc1ccc(Cl)cc1 [Example 11]	GABAB(1A,2) receptor heterodimer (Homo sapiens, UniProt O75899+Q9UBS5)	5.89
O=c1c2nccnc2n(Cc2ccc(Cl)cc2)c(=O)n1Cc1ccc(Cl)cc1 [Example 8]	GABAB(1A,2) receptor heterodimer (Homo sapiens, UniProt O75899+Q9UBS5)	5.62
C[Si](C)(C)CCn1c(=O)n(Cc2ccc(Cl)cc2)c(=O)c2nccnc21 [Example 3]	GABAB(1A,2) receptor heterodimer (Homo sapiens, UniProt O75899+Q9UBS5)	6.22
CCCn1c(=O)n(Cc2ccc(Cl)cc2)c(=O)c2nc(C)c(C)nc21 [Example 15]	GABAB(1A,2) receptor heterodimer (Homo sapiens, UniProt O75899+Q9UBS5)	5.89
COc1ccc(Cn2c(=O)n(Cc3ccc(Cl)cc3)c(=O)c3nccnc32)c(OC)c1 [Example 1]	GABAB(1A,2) receptor heterodimer (Homo sapiens, UniProt O75899+Q9UBS5)	5.22

A. CC(C)(C)C(=O)Cn1c(=O)n(Cc2ccc(Cl)cc2)c(=O)c2nccnc21 [Example 5]
B. O=c1c2nccnc2n(Cc2ccccc2)c(=O)n1Cc1ccc(Cl)cc1 [Example 7]
Lower value for measured pEC50? Options: A , B Identify your selection by its label.
B
